// data source = PubChem BioAssay (Tox21)

# method-notes: A CellTox Green Cytotoxicity Assay to monitor cytotoxicity in HEK293 cells - 40 hour (AID 1224871); further: nearly all actives have a fitted effect of over 45% in size
# conditions: CellTox Green fluorescence; series mostly up to 76.8 µM
Results filed as inconclusive are left out. Active and inactive are the calls of the source. The call rests on the fitted dose curve; in most records, active means well fitted activation curve with a large enough effect in the repeat runs; inconclusive means weak or mixed curves; inactive means flat fitted curve, though single readings scatter.
recorded-metric: outcome

Guide cases for outcome, answers given:
compound: CCOC(=O)C(C)(C)Oc1ccc(Cl)cc1
outcome: inactive

compound: O=C(O)CN(CC(=O)O)CC(=O)O
outcome: inactive

compound: C=C(C)OC(C)=O
outcome: inactive

compound: CCCCCCCCCCCCCC(=O)OC(C)C
outcome: inactive

compound: NC(=O)OCC(COC(N)=O)c1ccccc1
outcome: inactive

Challenge: Annotate the compound "NC(=O)N1c2ccccc2C=Cc2ccccc21" with its measured outcome.
Response given: inactive

Challenge: Annotate the compound "NC(=O)NO" with its measured outcome.
Response given: inactive

Challenge: Annotate the compound COCC(C)N (stereo not given) with its measured outcome.
Response given: inactive

Challenge: Annotate the compound "CC1=NN(c2ccccc2)C(=O)C1" with its measured outcome.
Response given: inactive

Challenge: Annotate the compound "CCCCC/C(C=O)=C\c1ccccc1" with its measured outcome.
Response given: inactive

Challenge: Annotate the compound "CC(=O)Oc1ccccc1C(=O)O" with its measured outcome.
Response given: inactive

====

# method-notes: qHTS RealTime-Glo MT Cell Viability Assay in HEK293 cells - 32 hour (AID 1224868); further: nearly all actives have a fitted effect of over 50% in size
# conditions: RealTime-Glo luminescence; series mostly up to 76.8 µM
Inconclusive results are not listed. Active and inactive are the calls of the source. Calls come from the whole dose curve; as a rule, active = well fitted cell-killing curve with a large enough effect in the repeat runs; inconclusive = weak or mixed curves, or effect the other way; inactive = flat fitted curve, though single readings scatter.
Give one outcome, nothing more. List: y for active, n for inactive

Challenge: Which outcome did this test record for the molecule "NC(=O)OCC(COC(N)=O)c1ccccc1" ?
Response given: n

Challenge: Which outcome did this test record for the molecule "NC(=O)N1c2ccccc2C=Cc2ccccc21" ?
Response given: n

Challenge: Which outcome did this test record for the molecule "N[C@@H](Cc1c[nH]c2ccccc12)C(=O)O" ?
Response given: n

Challenge: Which outcome did this test record for the molecule "CC(=O)/C=C/C1=C(C)CCCC1(C)C" ?
Response given: n

Challenge: Which outcome did this test record for the molecule "CC(=O)Oc1ccccc1C(=O)O" ?
Response given: n

Challenge: Which outcome did this test record for the molecule "C[C@]12C=CC(=O)C=C1CC[C@@H]1[C@@H]2C(=O)C[C@@]2(C)[C@H]1CC[C@]2(O)C(=O)CO" ?
Response given: n

Challenge: Which outcome did this test record for the molecule "O=C1CCCCCN1" ?
Response given: n

Challenge: Which outcome did this test record for the molecule "COC1=CC(=O)C[C@@H](C)[C@]12Oc1c(Cl)c(OC)cc(OC)c1C2=O" ?
Response given: n

Challenge: Which outcome did this test record for the molecule "O=C(O)CN(CC(=O)O)CC(=O)O" ?
Response given: n

Challenge: Which outcome did this test record for the molecule "Cc1cccc2ccccc12" ?
Response given: n

Challenge: Which outcome did this test record for the molecule CC(C)(C)NCC(O)c1ccc(O)c(CO)c1 (stereo unspecified) ?
Response given: n

Challenge: Which outcome did this test record for the molecule "CC(=O)OC/C=C(C)/C=C/C=C(C)/C=C/C1=C(C)CCCC1(C)C" ?
Response given: n

Challenge: Which outcome did this test record for the molecule "NC(=O)NO" ?
Response given: n

Challenge: Which outcome did this test record for the molecule "CC(=O)c1ccc(S(=O)(=O)NC(=O)NC2CCCCC2)cc1" ?
Response given: n

Challenge: Which outcome did this test record for the molecule "Oc1cccc(O)c1" ?
Response given: n

Challenge: Which outcome did this test record for the molecule "C=C(C)OC(C)=O" ?
Response given: n

Challenge: Which outcome did this test record for the molecule "CCc1cc(C(N)=S)ccn1" ?
Response given: n

Challenge: Which outcome did this test record for the molecule "O=C1OC(c2ccc(O)cc2)(c2ccc(O)cc2)c2ccccc21" ?
Response given: n

Challenge: Which outcome did this test record for the molecule "NC(=O)c1ccc([N+](=O)[O-])cc1Cl" ?
Response given: n

Challenge: Which outcome did this test record for the molecule "c1ccc2[nH]c(-c3cscn3)nc2c1" ?
Response given: n

Challenge: Which outcome did this test record for the molecule "Cc1ccc(O)c(-n2nc3ccccc3n2)c1" ?
Response given: n

Challenge: Which outcome did this test record for the molecule "N[C@@H](Cc1c[nH]c2ccc(O)cc12)C(=O)O" ?
Response given: n

Challenge: Which outcome did this test record for the molecule COC(=O)C1CCC(C(=O)OC)CC1 (stereo unspecified) ?
Response given: n

Challenge: Which outcome did this test record for the molecule "COC(=O)c1ccc(C=O)cc1" ?
Response given: n

Challenge: Which outcome did this test record for the molecule CCCCCCCC(=O)OCC(O)CO (stereo unspecified) ?
Response given: n

Challenge: Which outcome did this test record for the molecule "CC1(C)O[C@@H]2[C@@H](CO[C@@]3(COS(N)(=O)=O)OC(C)(C)O[C@@H]23)O1" ?
Response given: n

Challenge: Which outcome did this test record for the molecule "Cc1c(N(C)C)c(=O)n(-c2ccccc2)n1C" ?
Response given: n

Challenge: Which outcome did this test record for the molecule "Cn1cnc2c1c(=O)[nH]c(=O)n2C" ?
Response given: n

Challenge: Which outcome did this test record for the molecule "CN(C)Cc1cc(CN(C)C)c(O)c(CN(C)C)c1" ?
Response given: n

Challenge: Which outcome did this test record for the molecule "Nc1cccc(N)c1" ?
Response given: n

Challenge: Which outcome did this test record for the molecule "COc1ccc(O)cc1" ?
Response given: n

Challenge: Which outcome did this test record for the molecule CCCCCCCCCCCCCCCCCC(=O)OCC(O)CO (stereo unspecified) ?
Response given: n

Challenge: Which outcome did this test record for the molecule O=C(O)CCCCC1CCSS1 (stereo unspecified) ?
Response given: n

Challenge: Which outcome did this test record for the molecule C[C@]12CC[C@@H]3c4ccc(O)cc4C[C@@H](CCCCCCCCCS(=O)CCCC(F)(F)C(F)(F)F)[C@H]3[C@@H]1CC[C@@H]2O (stereo partly specified) ?
Response given: y

Challenge: Which outcome did this test record for the molecule "O=c1cc[nH]c(=O)[nH]1" ?
Response given: n

Challenge: Which outcome did this test record for the molecule "COc1cc(C=O)ccc1O" ?
Response given: n

Challenge: Which outcome did this test record for the molecule "NC(N)=NC(N)=NCCc1ccccc1" ?
Response given: n

Challenge: Which outcome did this test record for the molecule "CCCCC/C(C=O)=C\c1ccccc1" ?
Response given: n

Challenge: Which outcome did this test record for the molecule CC(C)Cc1ccc(C(C)C(=O)O)cc1 (stereo unspecified) ?
Response given: n

Challenge: Which outcome did this test record for the molecule COCC(C)N (stereo unspecified) ?
Response given: n

Challenge: Which outcome did this test record for the molecule "Cc1cnc(NC(=O)C2=C(O)c3ccccc3S(=O)(=O)N2C)s1" ?
Response given: n

Challenge: Which outcome did this test record for the molecule "Cc1cccc(C)c1O" ?
Response given: n

Challenge: Which outcome did this test record for the molecule "C=CCOC(=O)CC(C)C" ?
Response given: n

Challenge: Which outcome did this test record for the molecule "COc1cc2c(c(OC)c1OC)-c1ccc(OC)c(=O)cc1[C@@H](NC(C)=O)CC2" ?
Response given: y

Challenge: Which outcome did this test record for the molecule "CCN1CCCC1=O" ?
Response given: n

Challenge: Which outcome did this test record for the molecule "CCCCOCCOCCOC(C)=O" ?
Response given: n

====

# assayed-target: Progesterone receptor (Homo sapiens)
# method-notes: qHTS assay to identify small molecule agonists of the progesterone receptor (PR) signaling pathway (AID 1346784); further: nearly all actives have a fitted effect of over 30% in size
# conditions: PR-UAS-bla HEK293T, beta-lactamase FRET ratio, 16 h; series mostly up to 92.4 µM
Inconclusive results are not listed. Active and inactive are the calls of the source. The call rests on the fitted dose curve.
Give one outcome, nothing more. List: true (1) for active, false (0) for inactive

Challenge: Which outcome did this test record for the molecule "C[C@]12C[C@H](O)[C@H]3[C@@H](CCC4=CC(=O)CC[C@@]43C)[C@@H]1CC[C@@H]2C(=O)CO" ?
Response given: true (1)

Challenge: Which outcome did this test record for the molecule CC(C)CC(C)CC(O)CC(C)C (stereo not given) ?
Response given: false (0)

Challenge: Which outcome did this test record for the molecule "Cc1cccc2ccccc12" ?
Response given: false (0)

Challenge: Which outcome did this test record for the molecule "CCCCC/C(C=O)=C\c1ccccc1" ?
Response given: false (0)

Challenge: Which outcome did this test record for the molecule "CCCCCCCCOc1ccc(C(=O)c2ccccc2)c(O)c1" ?
Response given: false (0)

Challenge: Which outcome did this test record for the molecule "CC1(C)O[C@@H]2[C@@H](CO[C@@]3(COS(N)(=O)=O)OC(C)(C)O[C@@H]23)O1" ?
Response given: false (0)

Challenge: Which outcome did this test record for the molecule "COc1ccc(C(=O)c2ccccc2)c(O)c1" ?
Response given: false (0)

Challenge: Which outcome did this test record for the molecule "Cc1cnc(NC(=O)C2=C(O)c3ccccc3S(=O)(=O)N2C)s1" ?
Response given: false (0)

Challenge: Which outcome did this test record for the molecule "CN/C(=C\[N+](=O)[O-])NCCSCc1ccc(CN(C)C)o1" ?
Response given: false (0)

Challenge: Which outcome did this test record for the molecule "C[C@]12C=CC(=O)C=C1CC[C@@H]1[C@@H]2C(=O)C[C@@]2(C)[C@H]1CC[C@]2(O)C(=O)CO" ?
Response given: false (0)

Challenge: Which outcome did this test record for the molecule "COc1ccc(O)cc1" ?
Response given: false (0)

Challenge: Which outcome did this test record for the molecule "CCn1cc(C(=O)O)c(=O)c2ccc(C)nc21" ?
Response given: false (0)

Challenge: Which outcome did this test record for the molecule "CN(C)C=O" ?
Response given: false (0)

Challenge: Which outcome did this test record for the molecule "CCCCCCCCCCCCCC(=O)OC(C)C" ?
Response given: false (0)

Challenge: Which outcome did this test record for the molecule "CCN(CC)CCOC(=O)c1ccc(N)cc1" ?
Response given: false (0)

Challenge: Which outcome did this test record for the molecule "OCCCc1ccccc1" ?
Response given: false (0)

Challenge: Which outcome did this test record for the molecule "NC(=O)N1c2ccccc2C=Cc2ccccc21" ?
Response given: false (0)

Challenge: Which outcome did this test record for the molecule "NC(=O)NO" ?
Response given: false (0)

Challenge: Which outcome did this test record for the molecule "NC(=O)OCC(COC(N)=O)c1ccccc1" ?
Response given: false (0)

Challenge: Which outcome did this test record for the molecule "C1CNCCN1" ?
Response given: false (0)
